# target-under-test: GluN2B glutamate receptors (Homo sapiens, UniProt Q05586+Q13224)
# Construct: expressed in transfected cells; host or cells: mammalian cells (line not described for GluN2B)
# Sequence (Q13224 27-1484, other chains not shown): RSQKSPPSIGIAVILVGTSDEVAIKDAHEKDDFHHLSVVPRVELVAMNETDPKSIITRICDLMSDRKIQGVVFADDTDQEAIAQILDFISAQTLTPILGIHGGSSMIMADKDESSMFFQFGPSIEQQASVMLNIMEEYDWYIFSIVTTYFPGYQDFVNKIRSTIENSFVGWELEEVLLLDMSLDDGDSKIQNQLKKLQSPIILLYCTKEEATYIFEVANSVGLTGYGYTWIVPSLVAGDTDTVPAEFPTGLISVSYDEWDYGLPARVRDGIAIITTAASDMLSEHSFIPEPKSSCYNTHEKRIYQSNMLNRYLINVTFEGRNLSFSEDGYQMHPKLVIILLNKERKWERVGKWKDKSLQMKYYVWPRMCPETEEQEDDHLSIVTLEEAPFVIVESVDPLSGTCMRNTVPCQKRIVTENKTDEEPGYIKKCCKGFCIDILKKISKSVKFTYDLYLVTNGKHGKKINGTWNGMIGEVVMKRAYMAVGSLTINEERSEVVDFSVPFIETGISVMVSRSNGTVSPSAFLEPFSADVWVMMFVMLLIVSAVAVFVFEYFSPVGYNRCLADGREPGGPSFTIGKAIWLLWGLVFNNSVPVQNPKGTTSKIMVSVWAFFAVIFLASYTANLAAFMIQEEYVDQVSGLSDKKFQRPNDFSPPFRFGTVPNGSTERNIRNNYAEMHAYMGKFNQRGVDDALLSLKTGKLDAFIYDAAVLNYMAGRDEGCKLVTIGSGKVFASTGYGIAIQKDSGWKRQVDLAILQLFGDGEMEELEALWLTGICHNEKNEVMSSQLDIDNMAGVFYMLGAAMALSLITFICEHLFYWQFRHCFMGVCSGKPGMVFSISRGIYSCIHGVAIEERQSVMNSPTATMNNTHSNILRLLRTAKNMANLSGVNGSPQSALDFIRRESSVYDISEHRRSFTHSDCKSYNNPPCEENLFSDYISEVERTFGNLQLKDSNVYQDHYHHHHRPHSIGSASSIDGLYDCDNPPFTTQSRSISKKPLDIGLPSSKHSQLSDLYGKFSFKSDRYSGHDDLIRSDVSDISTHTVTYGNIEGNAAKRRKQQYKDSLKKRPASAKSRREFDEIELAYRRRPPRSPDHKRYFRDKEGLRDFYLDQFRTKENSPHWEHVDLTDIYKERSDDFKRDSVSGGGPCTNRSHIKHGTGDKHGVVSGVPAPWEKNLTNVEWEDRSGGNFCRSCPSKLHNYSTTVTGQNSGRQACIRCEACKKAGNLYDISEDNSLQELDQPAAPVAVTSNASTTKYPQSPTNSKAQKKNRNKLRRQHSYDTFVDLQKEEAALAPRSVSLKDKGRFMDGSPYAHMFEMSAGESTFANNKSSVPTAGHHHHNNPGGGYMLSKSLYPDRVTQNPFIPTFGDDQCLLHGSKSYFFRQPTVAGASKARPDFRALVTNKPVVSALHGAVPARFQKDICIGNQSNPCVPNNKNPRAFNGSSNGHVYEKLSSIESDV
# protocol-details: Whole-cell patch clamp of mammalian cells (Ionworks Barracuda), positive allosteric modulation (PAM) of NMDA receptor, 2B
# Assay type: cell-based
# condition-info: % activation of current elicited with EC20 L-glutamate and 30 µM glycine
# Procedure: The measurements were perfomed using Ion Works Barracuda platform following this procedure: • Electrophysiological Procedures: • a) Intracellular solution (mM): 50 mM CsCl, 90 mM CsF, 2 mM MgCl2, 5 mM EGTA, 10 mM HEPES. […] The maximal amplitude of the evoked currents are measured and defined as Peak Current Amplitude (PCA).
property: Emax (%)

compound	observed-value
C[C@H](CC[C@@H](O)C(C)(C)C)[C@H]1CC[C@H]2[C@@H]3CC[C@@H]4C[C@](O)(C(F)(F)F)CC[C@]4(C)[C@H]3CC[C@]12C	410
CCC1(O)CCC2C(=CCC3C2CCC2(C)C(C(C)CCC4(O)CCOC4)CCC32)C1 (single isomer, unassigned)	262
C[C@H](CCC1(O)CCOC1)[C@H]1CC[C@H]2[C@@H]3CC=C4C[C@](O)(C(F)(F)F)CC[C@]4(C)[C@H]3CC[C@]12C (some centres unmarked)	362
C[C@H](CCC1(O)CCCCCC1)[C@H]1CC[C@H]2[C@@H]3CC[C@H]4C[C@](O)(C(F)(F)F)CC[C@]4(C)[C@H]3CC[C@]12C	300
CC[C@]1(O)CC[C@H]2C(=CC[C@@H]3[C@@H]2CC[C@]2(C)[C@@H]([C@H](C)CC[C@H](O)C(C)C)CC[C@@H]32)C1	281

The values you see were collected from patent EP3529257B1.
